# Tested on: Tyrosine-protein kinase ABL1 (Homo sapiens), P00519 [Q252H]
# measurement parameters: at 0.1 µM
readout type: inhibition (%)

{"molecule smiles": "Fc1ccc(-c2ncn(C3CCNCC3)c2-c2ccnc(Oc3ccc(F)c(F)c3)n2)cc1", "test target": "Tyrosine-protein kinase ABL1 (Homo sapiens), P00519 [Q252H]", "endpoint unit": "%", "value observed": 2.26}
{"molecule smiles": "CCS(=O)(=O)c1ccc(OC)c(Nc2ncc(-c3ccccc3Cl)o2)c1", "test target": "Tyrosine-protein kinase ABL1 (Homo sapiens), P00519 [Q252H]", "endpoint unit": "%", "value observed": 5.67}
{"molecule smiles": "COc1cc2ncn(-c3cc(OCc4ccccc4C(F)(F)F)c(C(C)=O)s3)c2cc1OC", "test target": "Tyrosine-protein kinase ABL1 (Homo sapiens), P00519 [Q252H]", "endpoint unit": "%", "value observed": 4.93}
{"molecule smiles": "C#Cc1cccc(Nc2ncnc3ccc(OCCCCNCCS(C)(=O)=O)cc23)c1", "test target": "Tyrosine-protein kinase ABL1 (Homo sapiens), P00519 [Q252H]", "endpoint unit": "%", "value observed": 6.79}

====

# Tested on: Receptor-type tyrosine-protein kinase FLT3 (Homo sapiens), P36888 [D835Y]
# measurement parameters: at 0.1 µM
// inhibition lookup, one value per entry
readout type: inhibition (%)

{"compound": "Fc1ccc(-c2ncn(C3CCNCC3)c2-c2ccnc(Oc3ccc4c(c3)OCO4)n2)cc1", "value observed": -0.87}
{"compound": "Fc1ccc(-c2ncn(C3CCNCC3)c2-c2ccnc(Oc3ccc(Oc4ccccc4)cc3)n2)cc1", "value observed": -3.32}
{"compound": "C#Cc1cccc(Nc2ncnc3ccc(OCCCCNCCS(C)(=O)=O)cc23)c1", "value observed": 3.91}
{"compound": "C[C@@H](Oc1cc(-n2cnc3ccc(OCC4CCN(C)CC4)cc32)sc1C(N)=O)c1ccccc1Cl", "value observed": -8.99}
{"compound": "FC(F)(F)c1cccc(Nc2nccc(-c3cnn4nc(-c5ccccc5)ccc34)n2)c1", "value observed": -4.32}
{"compound": "O=C(Nc1n[nH]c2nc(-c3ccc(O)cc3)c(Br)cc12)C1CC1", "value observed": 4.14}
{"compound": "C[C@@H](Oc1cc(-n2cnc3ccc(OC4CCN(C)CC4)cc32)sc1C(N)=O)c1ccccc1Cl", "value observed": 1.72}
{"compound": "CN(C)CCCNc1nccc(-c2c(-c3ccc(F)cc3)nn3cc(C(F)(F)F)ccc23)n1", "value observed": -2.41}
{"compound": "COc1ccc2ncn(-c3cc(O[C@H](C)c4ccccc4Cl)c(C(N)=O)s3)c2c1", "value observed": 2.46}
{"compound": "COc1ccc2cc(-c3c(-c4ccncc4)nc(-c4ccc([S+](C)[O-])cc4C)n3C)ccc2c1 (stereo not drawn)", "value observed": 0.23}
{"compound": "N#Cc1ccc(Oc2nccc(-c3c(-c4ccc(F)cc4)ncn3C3CCNCC3)n2)cc1", "value observed": -7.02}
{"compound": "O=C(Nc1ccc(Oc2ccc3[nH]c(NC(=O)c4ccccc4)nc3c2)cc1)Nc1cc(C(F)(F)F)ccc1F", "value observed": -0.18}
{"compound": "Cc1ccc(C(=O)NC(C)C)cc1-c1ccc(C(=O)NCC2CC2)cc1", "value observed": -1.15}
{"compound": "CS(=O)(=O)CCNCc1ccc(-c2ccc3ncnc(Nc4ccc(OCc5ccccc5)c(Br)c4)c3c2)o1", "value observed": -8.89}
{"compound": "c1ccc(-c2n[nH]cc2-c2ccnc(-c3ccc(OCCN4CCOCC4)cc3)c2)nc1", "value observed": -0.15}
{"compound": "Cc1nnc(-c2ccc(C)c(-c3ccc(C(=O)NCc4ccc(Cl)cc4)cc3)c2)o1", "value observed": 2.22}
{"compound": "O=C(Nc1n[nH]c2cc(-c3cc(F)ccc3F)ccc12)C1CC1", "value observed": -5.43}
{"compound": "CN1CCN(CCCNc2nc3ccc(Oc4ccc(NC(=O)Nc5cc(C(F)(F)F)ccc5F)cc4)cc3[nH]2)CC1", "value observed": -5.77}
{"compound": "COc1ccc(-c2ccc3c(NC(=O)C4CC4)n[nH]c3n2)cc1", "value observed": -3.58}
{"compound": "O=C(Nc1n[nH]c2nc(-c3ccco3)ccc12)C1CC1", "value observed": -0.89}
{"compound": "COc1cc2ncn(-c3cc(OCc4cccs4)c(C(N)=O)s3)c2cc1OC", "value observed": -6.36}
{"compound": "CNC(=O)c1cncc(/C=C/c2c(C)cccc2C)c1", "value observed": 3.49}
{"compound": "O=C1Nc2ccc(I)cc2C1=Cc1cc(Br)c(O)c(Br)c1", "value observed": -4.08}
{"compound": "NS(=O)(=O)c1ccc(Nc2cc(-c3ccc(O)c(F)c3)n[nH]2)cc1", "value observed": 5.5}
{"compound": "C/C(Nc1ccc(S(N)(=O)=O)cc1)=C1/C(=O)Nc2ccccc21", "value observed": 7.17}
{"compound": "COc1ccc(C2=C(N3CCc4ccccc43)C(=O)NC2=O)cc1", "value observed": 5.76}
{"compound": "Clc1ccc(CNc2nccc(-c3cnn4ncccc34)n2)cc1", "value observed": 2.77}
{"compound": "COc1cc(N2CCN(C(C)C)CC2)ccc1Nc1nc(Nc2ccc(F)cc2C(=O)NC[C@@H](O)CO)c2cc[nH]c2n1", "value observed": 0.41}

Reference for the values: ChEMBL document CHEMBL1961873
